# Experimental Target: androgen receptor (AR) splicing variant AR-v7 (Homo sapiens, UniProt P10275)
# Construct: The degradation activity of compounds on AR-v7 in 22RV1 cells; host or cells: 22RV1 cells
# Sequence (P10275 1-644 isoform P10275-3): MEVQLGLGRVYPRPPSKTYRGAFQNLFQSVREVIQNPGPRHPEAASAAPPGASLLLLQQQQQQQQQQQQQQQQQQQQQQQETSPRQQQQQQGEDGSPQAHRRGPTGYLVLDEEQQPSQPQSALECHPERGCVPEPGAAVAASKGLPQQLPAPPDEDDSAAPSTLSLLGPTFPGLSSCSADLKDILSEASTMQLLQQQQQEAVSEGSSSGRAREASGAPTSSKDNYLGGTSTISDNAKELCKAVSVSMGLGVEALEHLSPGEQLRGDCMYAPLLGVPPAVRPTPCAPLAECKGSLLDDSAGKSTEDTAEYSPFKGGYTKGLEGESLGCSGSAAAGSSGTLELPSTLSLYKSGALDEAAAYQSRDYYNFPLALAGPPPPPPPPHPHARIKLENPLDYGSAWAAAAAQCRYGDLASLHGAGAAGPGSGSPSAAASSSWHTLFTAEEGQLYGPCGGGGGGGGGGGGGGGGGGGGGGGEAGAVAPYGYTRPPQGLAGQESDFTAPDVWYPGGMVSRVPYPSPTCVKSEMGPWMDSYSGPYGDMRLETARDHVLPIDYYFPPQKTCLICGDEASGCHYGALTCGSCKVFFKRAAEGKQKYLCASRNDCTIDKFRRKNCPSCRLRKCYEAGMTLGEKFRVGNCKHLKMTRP
# Procedure Text: Degradation activity on androgen receptor splicing variant AR-v7 in 22RV1 cells (ELISA)
# Format: cell-based
# Conditions Used: AR-v7 degradation in 22RV1 cells, 48 h, class symbols
Reported Metric: DC50

[in] Look up DC50: CC(C)(c1ccc(OCc2ccnc(-n3ccnn3)n2)cc1)c1ccc(O[C@H]2C[C@H](Nc3ccc4c(c3)C(=O)N(C3CCC(=O)NC3=O)C4=O)C2)cc1 (stereo partly shown)
[out] < 0.01 µM

[in] Suppose we examine the molecule CC(C)(c1ccc(OCc2ccnc(N3CC4(COC4)C3)n2)cc1)c1ccc(O[C@]2(C)C[C@@H](Nc3ccc4c(c3)C(=O)N(C3CCC(=O)NC3=O)C4=O)C2)cc1 (stereo partly shown) ; what DC50 value has been reported?
[out] 0.011 to 0.1 µM

[in] Quick check: DC50 of Cn1nc(C(F)(F)F)cc1-c1nccc(COc2ccc(C(C)(C)c3ccc(O[C@H]4C[C@@H](Nc5ccc6c(c5)C(=O)N(C5CCC(=O)NC5=O)C6=O)C4)cc3)cc2)n1 (stereo partly shown) ?
[out] 0.101 to 1 µM

[in] Report DC50 for CC(C)(c1ccc(OCc2ccnc(N3CC(N4CCC4)C3)n2)cc1)c1ccc(O[C@H]2C[C@@H](Nc3ccc4c(c3)C(=O)N(C3CCC(=O)NC3=O)C4=O)C2)cc1 (stereo partly shown) please.
[out] < 0.01 µM

[in] Which value of DC50 has been reported for CC(C)(c1ccc(Oc2ncnc(N3CC4(COC4)C3)c2F)cc1)c1ccc(O[C@H]2C[C@H](Nc3ccc4c(c3)C(=O)N(C3CCC(=O)NC3=O)C4=O)C2)cc1 (stereo partly shown) in the records?
[out] < 0.01 µM

[in] Looking for the measured DC50 of Cc1nc(-c2ncc(F)cc2Oc2ccc(C(C)(C)c3ccc(O[C@H]4C[C@H](Nc5ccc6c(c5)C(=O)N(C5CCC(=O)NC5=O)C6=O)C4)cc3)cc2)no1 (stereo partly shown) , can you help?
[out] < 0.01 µM

[in] I'd like to know its DC50. The molecule in question is CC(C)(c1ccc(Oc2cccc(-n3nccn3)n2)cc1)c1ccc(O[C@H]2C[C@H](Nc3ccc4c(c3)C(=O)N(C3CCC(=O)NC3=O)C4=O)C2)cc1 (stereo partly shown)
[out] < 0.01 µM

[in] Would you kindly share the measured DC50 for CN1CC[C@@H](Oc2nccc(COc3ccc(C(C)(C)c4ccc(O[C@H]5C[C@@H](Nc6ccc7c(c6)C(=O)N(C6CCC(=O)NC6=O)C7=O)C5)cc4)cc3)n2)C1 (stereo partly shown) ?
[out] < 0.01 µM

[in] Reported DC50 for CC(C)(c1ccc(Oc2cnnc(-n3nccn3)c2)cc1)c1ccc(O[C@H]2C[C@H](Nc3ccc4c(c3)C(=O)N(C3CCC(=O)NC3=O)C4=O)C2)cc1 (stereo partly shown) : what is it?
[out] < 0.01 µM

[in] Param item = CC(O)c1ncc(Oc2ccc(C(C)(C)c3ccc(O[C@H]4C[C@H](Nc5ccc6c(c5)C(=O)N(C5CCC(=O)NC5=O)C6=O)C4)cn3)cc2)cn1 (stereo partly shown) ; retrieve measured DC50.
[out] < 0.01 µM

[in] Look up DC50: CC(C)(c1ccc(OCCCNc2ccc3c(c2)C(=O)N(C2CCC(=O)NC2=O)C3=O)cc1)c1ccc(OCc2ccnc(S(C)(=O)=O)n2)cc1 (stereo not shown)
[out] 1 to 5 µM

[in] I am curious: what DC50 value has been reported for Cc1nnc(-c2ccc(Oc3ccc(C(C)(C)c4ccc(O[C@H]5C[C@@H](Nc6ccc7c(=O)n(C8CCC(=O)NC8=O)cnc7c6)C5)cc4)cc3)cn2)o1 (stereo partly shown) ?
[out] 0.011 to 0.1 µM

[in] Can you look up the measured DC50 of CC(C)(c1ccc(OCc2ccnc(N3CC4(COC4)C3)n2)cc1)c1ccc(O[C@H]2C[C@@H](Nc3ccc4c(c3)C(=O)N(C3CCC(=O)NC3=O)C4)C2)cc1 (stereo partly shown) for me?
[out] 0.101 to 1 µM

[in] Fill blank: measured DC50 of the molecule CC(C)(c1ccc(OCCCNc2ccc3c(c2)C(=O)N(C2CCC(=O)NC2=O)C3=O)cc1)c1ccc(OCc2ccnc(-n3cccn3)n2)cc1 (stereo not shown) is ____.
[out] 0.011 to 0.1 µM

[in] Returns the measured DC50 for the input molecule. Input: CC(C)(c1ccc(OCc2ccnc(N3CC4(COC4)C3)n2)cc1)c1ccc(OC[C@H]2CCCN2c2ccc3c(c2)C(=O)N(C2CCC(=O)NC2=O)C3=O)cc1 (stereo partly shown)
[out] 1 to 5 µM

[in] What DC50 value was documented for this molecule, Cc1nc(-c2ccc(Oc3ccc(C(C)(C)c4ccc(O[C@H]5C[C@@H](Nc6ccc7c(c6)C(=O)N(C6CCC(=O)NC6=O)C7=O)C5)cc4)cc3)cn2)no1 (stereo partly shown) [Example 597] ?
[out] 0.011 to 0.1 µM
